# Tested on: adult brown dog ticks (Rhipicephalus sanguineus)
# assay.text: Rhipicephalus sanguineus in-vitro contact test, adult brown dog ticks
# Format: in vivo
# study.conditions: application rate 5 μg/cm^2 (=500 g/ha), after 48 hours, read-out: activity (efficacy: ticks dead or moribund)
property.label: pest or weed control at 5 µg/cm2, 500 g/ha

>  <compound>
Cc1nc([C@H](C)NC(=O)c2cc(C(F)F)cc(C3CC3)c2)n(-c2ccc(C#N)cn2)n1 [II-61]

>  <tested.target>
adult brown dog ticks (Rhipicephalus sanguineus)

>  <observed>
100%

$$$$
>  <compound>
C[C@H](NC(=O)c1cc(Cl)cc(S(=O)(=O)C(F)F)c1)c1ncnn1-c1ncccn1 [II-34]

>  <tested.target>
adult brown dog ticks (Rhipicephalus sanguineus)

>  <observed>
100%

$$$$
>  <compound>
CC(C)c1nc([C@H](C)NC(=O)c2cc(Cl)cc(S(=O)(=O)C3CC3)c2)n(-c2ccc(C#N)cn2)n1 [I-18]

>  <tested.target>
adult brown dog ticks (Rhipicephalus sanguineus)

>  <observed>
100%

$$$$
>  <compound>
Cc1nc([C@H](C)NC(=O)c2cc(Cl)cc(S(=O)(=O)C(F)F)c2)n(-c2ccc(Cl)cn2)n1 [II-36]

>  <tested.target>
adult brown dog ticks (Rhipicephalus sanguineus)

>  <observed>
80%

$$$$

###

# Tested on: adult brown dog ticks (Rhipicephalus sanguineus)
# assay.text: Rhipicephalus sanguineus in-vitro contact test, adult brown dog ticks
# Type: in vivo
# study.conditions: application rate 5 μg/cm^2 (=500 g/ha), after 48 hours, read-out: activity (efficacy: ticks dead or moribund)
property.label: pest or weed control at 5 µg/cm2, 500 g/ha (%)

>  <molecule>
Cc1nc([C@H](C)NC(=O)c2cc(C(F)(F)F)cc(C3(C#N)CC3)c2)n(-c2ccc(C#N)cn2)n1 [II-49]

>  <observed>
100

$$$$
>  <molecule>
C[C@H](NC(=O)c1cc(C(F)(F)F)cc(C2(C#N)CC2)c1)c1ncnn1-c1ccc(Cl)cn1 [II-48]

>  <observed>
100

$$$$
>  <molecule>
CC(C)S(=O)(=O)c1cc(Cl)cc(C(=O)N[C@@H](C)c2nc(C3CC3)nn2-c2ccc(C#N)cn2)c1 [I-14]

>  <observed>
80

$$$$
>  <molecule>
C[C@H](NC(=O)c1cc(C(F)F)cc(S(C)(=O)=O)c1)c1nc(C2CC2)nn1-c1ccc(Cl)cn1 [I-57]

>  <observed>
80

$$$$
>  <molecule>
Cc1nc([C@H](C)NC(=O)c2cc(OC(F)F)cc(C3CC3)c2)n(-c2ccc(C#N)cn2)n1 [II-63]

>  <observed>
100

$$$$
>  <molecule>
C[C@H](NC(=O)c1cc(Cl)cc(C2(C#N)CC2)c1)c1ncnn1-c1ncc(Cl)cn1 [II-55]

>  <observed>
100

$$$$
>  <molecule>
CC(C)c1nc([C@H](C)NC(=O)c2cc(OC(F)(F)F)cc(C3CC3)c2)n(-c2ccc(C#N)cn2)n1 [I-23]

>  <observed>
100

$$$$
>  <molecule>
CCS(=O)(=O)c1cc(C(=O)N[C@@H](C)c2nc(C3CC3)nn2-c2ccc(C#N)cn2)cc(C(F)(F)F)c1 [I-19]

>  <observed>
80

$$$$

###

# Test system: adult unfed cat fleas (Ctenocephalides felis)
# assay.text: Ctenocephalides felis oral test
# Format: in vivo
# study.conditions: 48 h, read-out: activity (mortality)
Entries annotated with measured mortality at 100 ppm
property.label: mortality at 100 ppm (%)

>  <compound>
C[C@H](NC(=O)c1cc(C(F)(F)F)cc(C2(C#N)CC2)c1)c1ncnn1-c1ccc(Cl)cn1 [II-48]

>  <tested.target>
adult unfed cat fleas (Ctenocephalides felis)

>  <measure.unit>
%

>  <observed>
100

$$$$
>  <compound>
CCS(=O)(=O)c1cc(Cl)cc(C(=O)N[C@@H](C)c2nc(C3CC3)nn2-c2ncc(Cl)cn2)c1 [I-24]

>  <tested.target>
adult unfed cat fleas (Ctenocephalides felis)

>  <measure.unit>
%

>  <observed>
90

$$$$
>  <compound>
CC(NC(=O)c1cc(Br)cc(C2(C(F)(F)F)CC2)c1)c1nc(Cl)nn1-c1ncccn1 (centres unmarked) [I-47]

>  <tested.target>
adult unfed cat fleas (Ctenocephalides felis)

>  <measure.unit>
%

>  <observed>
80

$$$$
>  <compound>
C[C@H](NC(=O)c1cc(Cl)cc(C2(C#N)CC2)c1)c1ncnn1-c1cc(C#N)ccn1 [II-4]

>  <tested.target>
adult unfed cat fleas (Ctenocephalides felis)

>  <measure.unit>
%

>  <observed>
100

$$$$
>  <compound>
CC(C)c1nc([C@H](C)NC(=O)c2cc(Cl)cc(S(=O)(=O)C3CC3)c2)n(-c2ccc(C#N)cn2)n1 [I-18]

>  <tested.target>
adult unfed cat fleas (Ctenocephalides felis)

>  <measure.unit>
%

>  <observed>
80

$$$$
>  <compound>
CCOc1nc([C@H](C)NC(=O)c2cc(Cl)cc(S(C)(=O)=O)c2)n(-c2ccc(C#N)cn2)n1 [I-9]

>  <tested.target>
adult unfed cat fleas (Ctenocephalides felis)

>  <measure.unit>
%

>  <observed>
100

$$$$
>  <compound>
C[C@H](NC(=O)c1cc(C#N)cc(S(C)(=O)=O)c1)c1ncnn1-c1ccc(C#N)cn1 [II-9]

>  <tested.target>
adult unfed cat fleas (Ctenocephalides felis)

>  <measure.unit>
%

>  <observed>
100

$$$$
>  <compound>
C[C@H](NC(=O)c1cc(Cl)cc(S(C)(=O)=O)c1)c1ncnn1-c1ncc(I)s1 [II-51]

>  <tested.target>
adult unfed cat fleas (Ctenocephalides felis)

>  <measure.unit>
%

>  <observed>
100

$$$$
>  <compound>
C[C@H](NC(=O)c1cc(Cl)cc(S(C)(=O)=O)c1)c1ncnn1-c1ncc(I)cn1 [II-44]

>  <tested.target>
adult unfed cat fleas (Ctenocephalides felis)

>  <measure.unit>
%

>  <observed>
100

$$$$
>  <compound>
C[C@H](NC(=O)c1cc(Cl)cc(S(C)(=O)=O)c1)c1ncnn1-c1ncc(OC(F)F)cn1 [II-42]

>  <tested.target>
adult unfed cat fleas (Ctenocephalides felis)

>  <measure.unit>
%

>  <observed>
100

$$$$
>  <compound>
C[C@H](NC(=O)c1csc(Cl)c1)c1ncnn1-c1ncccn1 [II-30]

>  <tested.target>
adult unfed cat fleas (Ctenocephalides felis)

>  <measure.unit>
%

>  <observed>
100

$$$$
>  <compound>
C[C@H](NC(=O)c1cc(Cl)cc(C2(C#N)CC2)c1)c1ncnn1-c1ncc(Cl)cn1 [II-55]

>  <tested.target>
adult unfed cat fleas (Ctenocephalides felis)

>  <measure.unit>
%

>  <observed>
100

$$$$
>  <compound>
C[C@H](NC(=O)c1cc(C#N)cc(S(C)(=O)=O)c1)c1ncnn1-c1ccccn1 [II-31]

>  <tested.target>
adult unfed cat fleas (Ctenocephalides felis)

>  <measure.unit>
%

>  <observed>
100

$$$$
>  <compound>
C[C@H](NC(=O)c1cc(Cl)cc(S(=O)(=O)C(F)F)c1)c1ncnn1-c1ccc(Cl)cn1 [II-37]

>  <tested.target>
adult unfed cat fleas (Ctenocephalides felis)

>  <measure.unit>
%

>  <observed>
100

$$$$
>  <compound>
Cc1nc([C@H](C)NC(=O)c2cc(C(F)(F)F)cc(C3(C#N)CC3)c2)n(-c2ccc(C#N)cn2)n1 [II-49]

>  <tested.target>
adult unfed cat fleas (Ctenocephalides felis)

>  <measure.unit>
%

>  <observed>
100

$$$$
>  <compound>
C[C@H](NC(=O)c1cc(Cl)cc(S(=O)(=O)CC(F)(F)F)c1)c1nc(C2CC2)nn1-c1ccc(C#N)cn1 [I-13]

>  <tested.target>
adult unfed cat fleas (Ctenocephalides felis)

>  <measure.unit>
%

>  <observed>
90

$$$$
>  <compound>
CC(NC(=O)c1cc(Cl)cc(S(C)(=O)=O)c1)c1nc(C(F)F)nn1-c1ncccn1 (centres unmarked) [I-5]

>  <tested.target>
adult unfed cat fleas (Ctenocephalides felis)

>  <measure.unit>
%

>  <observed>
100

$$$$

###

# Tested on: adult engorged female ticks (Rhipicephalus microplus)
# assay.text: Rhipicephalus (Boophilus) microplus injection test
# Type: in vivo
# study.conditions: 168 h, application rate 4 pg/animal, egg deposition after 7 days, read-out: activity (efficacy: infertile eggs)

>  <smiles.input>
CCCc1nc([C@H](C)NC(=O)c2cc(Cl)cc(C3CC3)c2)n(-c2ccc(C#N)cn2)n1

>  <tested.target>
adult engorged female ticks (Rhipicephalus microplus)

>  <pest or weed control at 4 pg / %>
100

$$$$
>  <smiles.input>
C[C@H](NC(=O)c1cc(OC(F)(F)F)cc(C2CC2)c1)c1ncnn1-c1ccc(Cl)cn1

>  <tested.target>
adult engorged female ticks (Rhipicephalus microplus)

>  <pest or weed control at 4 pg / %>
100

$$$$
>  <smiles.input>
C[C@H](NC(=O)c1cc(Cl)cc(S(=O)(=O)C2CC2)c1)c1ncnn1-c1ccc(C#N)cn1

>  <tested.target>
adult engorged female ticks (Rhipicephalus microplus)

>  <pest or weed control at 4 pg / %>
100

$$$$
>  <smiles.input>
C[C@H](NC(=O)c1cc(Br)cc(C2CC2)c1)c1ncnn1-c1ccc(C#N)cn1

>  <tested.target>
adult engorged female ticks (Rhipicephalus microplus)

>  <pest or weed control at 4 pg / %>
80

$$$$
>  <smiles.input>
Cc1nc([C@H](C)NC(=O)c2csc(Cl)c2)n(-c2ccc(C#N)cn2)n1

>  <tested.target>
adult engorged female ticks (Rhipicephalus microplus)

>  <pest or weed control at 4 pg / %>
80

$$$$
>  <smiles.input>
C[C@H](NC(=O)c1cc(Cl)cc(S(=O)(=O)C(F)F)c1)c1ncnn1-c1ncccn1

>  <tested.target>
adult engorged female ticks (Rhipicephalus microplus)

>  <pest or weed control at 4 pg / %>
100

$$$$
>  <smiles.input>
C[C@H](NC(=O)c1cc(Br)cc(S(C)(=O)=O)c1)c1ncnn1-c1ccc(C#N)cn1

>  <tested.target>
adult engorged female ticks (Rhipicephalus microplus)

>  <pest or weed control at 4 pg / %>
100

$$$$
>  <smiles.input>
C[C@H](NC(=O)c1cc(Cl)cc(S(=O)(=O)C2CC2)c1)c1nc(C2CC2)nn1-c1ncc(Cl)cn1

>  <tested.target>
adult engorged female ticks (Rhipicephalus microplus)

>  <pest or weed control at 4 pg / %>
100

$$$$
